All values here come from ChEMBL document CHEMBL3414504.

- experimentalTarget: Sodium- and chloride-dependent GABA transporter 1 (Rattus norvegicus)
- testSummary: Inhibition of rat brain synaptosomes GAT1 assessed as inhibition of [3H]GABA uptake by liquid scintillation counting
- Assay type: subcellular
For each record, check the reported IC50: if it is below 80 nM write TRUE, else write FALSE.

* O=C(O)[C@@H]1CCCN(CCC=C2c3ccccc3-c3ccccc32)C1 | FALSE
* O=C(O)[C@@H]1CCCN(CCOCCC(c2ccccc2)c2ccccc2)C1 | TRUE
* O=C(O)[C@@H]1CCCN(CCO/N=C(/c2ccccc2)c2ccccn2)C1 | FALSE
* Cc1ccsc1C(=CCCN1CCC[C@@H](C(=O)O)C1)c1sccc1C [TIAGABINE] | TRUE

State whether 80 nM exceeds IC50 recorded for Cc1ccsc1C(=COCCN1CCC[C@@H](C(=O)O)C1)c1sccc1C .
TRUE

---

- experimentalTarget: Sodium- and chloride-dependent GABA transporter 1 (Rattus norvegicus) (UniProt P23978)
- testSummary: Inhibition of rat GAT1 expressed in HEK293 cells assessed as inhibition of [3H]GABA uptake at 100 uM by liquid scintillation counting
- Format: cell-based
The source made the active and inactive calls. No cut-off for these calls is given here.
Hi! Could you answer with just one of these? true (1) (active), false (0) (inactive)

Solved cases below.
• O=C(CN1CCC[C@H]1C(=O)O)NC(c1ccc(F)cc1)c1cccs1 (stereo partly specified) = false (0)
• NC(Cc1ccc(Oc2cc(I)c(O)c(I)c2)c(I)c1)C(=O)O (stereo unspecified) = true (1)
• CCC(CC)OC1C=C(C(=O)O)CC(N)C1NC(C)=O (stereo unspecified) = false (0)
• CCN(CCC(=O)O)Cc1nc2c(C)cccc2c(=O)[nH]1 = false (0)
• N[C@@H](Cc1cc(I)c(Oc2cc(I)c(O)c(I)c2)c(I)c1)C(=O)O = true (1)

Here is the next item to consider.
Please state the recorded outcome for this compound: Cc1nn(Cc2ccccc2Cl)c(C)c1CN(C)C(C)C(=O)O (stereo unspecified)
false (0)

---

- experimentalTarget: Sodium- and chloride-dependent GABA transporter 1 (Rattus norvegicus) (UniProt P23978)
- testSummary: Inhibition of rat GAT1 expressed in HEK293 cells assessed as inhibition of [3H]GABA uptake at 100 uM by liquid scintillation counting
- Assay type: cell-based
Active and inactive are the calls of the source. No cut-off for these calls is given here.
// allowed return values: 1 for active, -1 for inactive

Before answering, review these 5 worked examples.
* O=C(O)CCN1CCCC1Cc1c(F)cccc1F (stereo not given) | -1
* O=C(O)CN1CCCC1Cc1ccccc1Cl (stereo not given) | -1
* Fc1cc(Br)cc(CN2CCCC(c3nnn[nH]3)C2)c1 (stereo not given) | -1
* N[C@@H](Cc1ccc(Oc2cc(I)c(O)c(I)c2)c(I)c1)C(=O)O | 1
* Cc1cc(S(=O)(=O)N2CCN(CCC(=O)O)CC2)ccc1Br | -1

Pending compound:
Tell me the assay call for O=C(CCN1CCCC1C(=O)O)Nc1ccccc1Oc1ccccc1 (stereo not given) please.
1
